For HCT-15, measured GI50 is reported for the entries below.
// note: answer is a bare numeric in µM

CC(=O)[O-].[Zn+].c1ccc(/C(=N\Nc2ccccn2)c2ccccn2)cc1; 0.0137
N=C(c1ccc2ccccc2c1)c1ccccc1Cc1ccccc1; 28.8

# ---- query compound ----
Query string: API: value(readout=GI50, system=HCT-15) for record `COc1c(-c2nc3ccc(N4CCN(C)CC4)nc3[nH]2)cc(OC)c2c1nc(CCl)n2C`
Result string: 26.3

====

System: DLD-1
Assay: NCI tumour cell line growth inhibition, 48 h
The source made the active and inactive calls. Rule as the data show it: active = GI50 up to about 1.1 µM and inactive = higher.
Allowed answers: class 1 for active, class 0 for inactive

Nc1ccn(C2OC(COC(=O)C34CC5CC(CC(C5)C3)C4)C(O)C2O)c(=O)n1 (stereo not given); class 0
Cc1c2cc[n+](C)cc2c(C)c2c1[nH]c1ccc(Cl)cc12; class 1
O=C(CC(=O)c1cccc2ccccc12)C(=O)Nc1ccc(Cl)cc1; class 0
N#CN=C(N(Cc1ccccc1)Cc1ccccc1)N(Cc1ccccc1)Cc1ccccc1; class 0

Shift focus to the following entry.
Query string: Test call, this compound: N#CCC(=O)N/N=C1\C(=O)N(c2ccc(Cl)cc2)C(=O)C(=O)C1c1nc2ccccc2o1 (stereo not given)
Result string: class 0
